Source listed as PubChem BioAssay AID1963986.

# Test system: 171881-019-R-J1-PDC tumor spheroid viability
# test_protocol: Anticancer human tumor 171881-019-R-J1-PDC patient-derived invasive breast carcinoma cell line growth inhibition [PI3K]
# test_settings: second compound 0.00316 µM; first compound 1 µM; stronger effect = lower value; spheroids with HUVEC and MSC
For each record, write down the corresponding viability, T/C.
Kindly provide the numeric value in % only, without the unit symbol.

Inquiry: Need viability, T/C, item CNC(=O)c1ccc(N2C(=S)N(c3ccc(C#N)c(C(F)(F)F)c3)C(=O)C2(C)C)cc1F + COc1c(OCCCN2CCOCC2)ccc2c3n(c(=NC(=O)c4cnc(N)nc4)nc12)CCN3
Reply text: 80.8

Inquiry: And for CCCS(=O)(=O)Nc1ccc(F)c(C(=O)c2c[nH]c3ncc(-c4ccc(Cl)cc4)cc23)c1F + COc1c(OCCCN2CCOCC2)ccc2c3n(c(=NC(=O)c4cnc(N)nc4)nc12)CCN3 ?
Reply text: 108

Inquiry: And for Cn1ncc(Cl)c1-c1cc(C(=O)NC(CN)Cc2cccc(F)c2)sc1Cl (stereo not drawn) + COc1c(OCCCN2CCOCC2)ccc2c3n(c(=NC(=O)c4cnc(N)nc4)nc12)CCN3 ?
Reply text: 17.7

---

# System: 171881-019-R-J1-PDC tumor spheroid viability
# test_protocol: Anticancer human tumor 171881-019-R-J1-PDC cell line growth inhibition [PI3K];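 also: spheroids exposed to compound for 7 days before viability read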
# test_settings: curve of first compound; second compound 0.00316 µM; spheroids with HUVEC and MSC
measured_metric: IC50 (nM)
Kindly provide the numeric value in nM only, without the unit symbol.

Inquiry: Need IC50, item C=CC(=O)N1CCN(c2nc(=O)n(-c3c(C)ccnc3C(C)C)c3nc(-c4c(O)cccc4F)c(F)cc23)C(C)C1 (stereo unspecified) + CC(Nc1ccc2c(c1)OCCn1cc(N3C(=O)OCC3C(F)F)nc1-2)C(N)=O
Reply text: 9110

Inquiry: And for CC1(C)CCC(Nc2ncc(C(F)(F)F)c(-c3c[nH]c4c(P(C)(C)=O)c(C#N)ccc34)n2)CN1 (stereo unspecified) + COc1c(OCCCN2CCOCC2)ccc2c3n(c(=NC(=O)c4cnc(N)nc4)nc12)CCN3 ?
Reply text: 4000

Inquiry: And for C#Cc1c(F)ccc2cc(O)cc(-c3ncc4c(N5CC6CCC(C5)N6)nc(OCC56CCCN5CC(F)C6)nc4c3F)c12 (stereo unspecified) + COc1c(OCCCN2CCOCC2)ccc2c3n(c(=NC(=O)c4cnc(N)nc4)nc12)CCN3 ?
Reply text: 61.3

Inquiry: And for Cn1nccc1Nc1nccc(-c2ccn(C(CO)c3ccc(Cl)c(F)c3)c(=O)c2)n1 (stereo unspecified) + CC(Nc1ccc2c(c1)OCCn1cc(N3C(=O)OCC3C(F)F)nc1-2)C(N)=O ?
Reply text: 265

Inquiry: And for Cn1ncc(Cl)c1-c1cc(C(=O)NC(CN)Cc2cccc(F)c2)sc1Cl (stereo unspecified) + CC(Nc1ccc2c(c1)OCCn1cc(N3C(=O)OCC3C(F)F)nc1-2)C(N)=O ?
Reply text: 149

Inquiry: And for CC(C)n1nc(-c2ccc3oc(N)nc3c2)c2c(N)ncnc21 + CC(Nc1ccc2c(c1)OCCn1cc(N3C(=O)OCC3C(F)F)nc1-2)C(N)=O ?
Reply text: 9.16

Inquiry: And for C[C@@H](NC(=O)c1ncnc(N)c1Cl)c1ncc(C(=O)Nc2cc(C(F)(F)F)c(Cl)cn2)s1 + COc1c(OCCCN2CCOCC2)ccc2c3n(c(=NC(=O)c4cnc(N)nc4)nc12)CCN3 ?
Reply text: 2360

Inquiry: And for CC1(C)CCC(Nc2ncc(C(F)(F)F)c(-c3c[nH]c4c(P(C)(C)=O)c(C#N)ccc34)n2)CN1 (stereo unspecified) + CC(Nc1ccc2c(c1)OCCn1cc(N3C(=O)OCC3C(F)F)nc1-2)C(N)=O ?
Reply text: 5040

Inquiry: And for CCCS(=O)(=O)Nc1ccc(F)c(C(=O)c2c[nH]c3ncc(-c4ccc(Cl)cc4)cc23)c1F + CC(Nc1ccc2c(c1)OCCn1cc(N3C(=O)OCC3C(F)F)nc1-2)C(N)=O ?
Reply text: 5810

Inquiry: And for CC(C)NCC(C(=O)N1CCN(c2ncnc3c2C(C)CC3O)CC1)c1ccc(Cl)cc1 (stereo unspecified) + COc1c(OCCCN2CCOCC2)ccc2c3n(c(=NC(=O)c4cnc(N)nc4)nc12)CCN3 ?
Reply text: 200

---

# System: 171881-019-R-J1-PDC tumor spheroid viability
# test_protocol: Anticancer human tumor 171881-019-R-J1-PDC cell line growth inhibition [PI3K]; active = viability on the fitted dose curve at most 10% of control; inactive = the rest;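 also: spheroids exposed to compound for 7 days before viability read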
# test_settings: second compound 1 µM; first compound 3.16 µM; spheroids with HUVEC and MSC
The reply should be one of these categories: active, inactive

Inquiry: # fetch the recorded call for CC1(C)CCC(CN2CCN(c3ccc(C(=O)NS(=O)(=O)c4ccc(NCC5CCOCC5)c([N+](=O)[O-])c4)c(Oc4cnc5[nH]ccc5c4)c3)CC2)=C(c2ccc(Cl)cc2)C1 + COc1c(OCCCN2CCOCC2)ccc2c3n(c(=NC(=O)c4cnc(N)nc4)nc12)CCN3 here
Reply text: active

Inquiry: And for CC1(C)CCC(Nc2ncc(C(F)(F)F)c(-c3c[nH]c4c(P(C)(C)=O)c(C#N)ccc34)n2)CN1 (configuration not stated) + CC(Nc1ccc2c(c1)OCCn1cc(N3C(=O)OCC3C(F)F)nc1-2)C(N)=O ?
Reply text: inactive

---

For each record, write down the corresponding viability, T/C.
# System: 171881-019-R-J1-PDC tumor spheroid viability
# test_protocol: Anticancer human tumor 171881-019-R-J1-PDC cell line growth inhibition [PI3K];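 also: spheroids exposed to compound for 7 days before viability read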;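 as to viability, T/C: 100% = DMSO vehicle-treated spheroids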
# test_settings: second compound 1 µM; first compound 1 µM; stronger effect = lower value; spheroids with HUVEC and MSC
Kindly provide the numeric value in % only, without the unit symbol.

Inquiry: Need viability, T/C, item CC1(C)CCC(Nc2ncc(C(F)(F)F)c(-c3c[nH]c4c(P(C)(C)=O)c(C#N)ccc34)n2)CN1 (stereo not drawn) + COc1c(OCCCN2CCOCC2)ccc2c3n(c(=NC(=O)c4cnc(N)nc4)nc12)CCN3
Reply text: 0.51

Inquiry: And for CNC(=O)c1ccc(N2C(=S)N(c3ccc(C#N)c(C(F)(F)F)c3)C(=O)C2(C)C)cc1F + COc1c(OCCCN2CCOCC2)ccc2c3n(c(=NC(=O)c4cnc(N)nc4)nc12)CCN3 ?
Reply text: 1.73

Inquiry: And for C[C@@H](NC(=O)c1ncnc(N)c1Cl)c1ncc(C(=O)Nc2cc(C(F)(F)F)c(Cl)cn2)s1 + CC(Nc1ncnc2nc[nH]c12)c1cc2cccc(Cl)c2c(=O)n1-c1ccccc1 ?
Reply text: 93.8

---

# Test system: 171881-019-R-J1-PDC tumor spheroid viability
# test_protocol: Anticancer human tumor 171881-019-R-J1-PDC cell line growth inhibition [PI3K]; active = viability on the fitted dose curve at most 10% of control; inactive = the rest;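 also: spheroids exposed to compound for 7 days before viability read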
# test_settings: second compound 10 µM; first compound 0.01 µM; spheroids with HUVEC and MSC
The reply should be one of these categories: Y (active), N (inactive)

Inquiry: # fetch the recorded call for CC(=O)c1c(C)c2cnc(Nc3ccc(N4CCNCC4)cn3)nc2n(C2CCCC2)c1=O + CC(Nc1ncnc2nc[nH]c12)c1cc2cccc(Cl)c2c(=O)n1-c1ccccc1 here
Reply text: N

Inquiry: And for CCN1CCN(Cc2ccc(Nc3ncc(F)c(-c4cc(F)c5nc(C)n(C(C)C)c5c4)n3)nc2)CC1 + Cc1nc(NC(=O)N2CCCC2C(N)=O)sc1-c1ccnc(C(C)(C)C(F)(F)F)c1 ?
Reply text: Y

Inquiry: And for CCN1CCN(Cc2ccc(Nc3ncc(F)c(-c4cc(F)c5nc(C)n(C(C)C)c5c4)n3)nc2)CC1 + CC(Nc1ncnc2nc[nH]c12)c1cc2cccc(Cl)c2c(=O)n1-c1ccccc1 ?
Reply text: N

Inquiry: And for Cn1ncnc1[C@H]1c2n[nH]c(=O)c3cc(F)cc(c23)N[C@@H]1c1ccc(F)cc1 + CC(Nc1ncnc2nc[nH]c12)c1cc2cccc(Cl)c2c(=O)n1-c1ccccc1 ?
Reply text: N

Inquiry: And for CC(=O)c1c(C)c2cnc(Nc3ccc(N4CCNCC4)cn3)nc2n(C2CCCC2)c1=O + Cc1nc(NC(=O)N2CCCC2C(N)=O)sc1-c1ccnc(C(C)(C)C(F)(F)F)c1 ?
Reply text: Y

Inquiry: And for CC(C)n1nc(-c2ccc3oc(N)nc3c2)c2c(N)ncnc21 + Cc1nc(NC(=O)N2CCCC2C(N)=O)sc1-c1ccnc(C(C)(C)C(F)(F)F)c1 ?
Reply text: Y

Inquiry: And for Cn1ncnc1[C@H]1c2n[nH]c(=O)c3cc(F)cc(c23)N[C@@H]1c1ccc(F)cc1 + Cc1nc(NC(=O)N2CCCC2C(N)=O)sc1-c1ccnc(C(C)(C)C(F)(F)F)c1 ?
Reply text: Y

Inquiry: And for CC(C)n1nc(-c2ccc3oc(N)nc3c2)c2c(N)ncnc21 + CC(Nc1ncnc2nc[nH]c12)c1cc2cccc(Cl)c2c(=O)n1-c1ccccc1 ?
Reply text: N

---

# Test system: 171881-019-R-J1-PDC tumor spheroid viability
# test_protocol: Anticancer human tumor 171881-019-R-J1-PDC cell line growth inhibition [PI3K];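 also: spheroids exposed to compound for 7 days before viability read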
# test_settings: curve of first compound; second compound 0.01 µM; spheroids with HUVEC and MSC
pIC50: −log10 of the molar value.
For each record, write down the corresponding pIC50.

Inquiry: Need pIC50, item Cn1ncnc1[C@H]1c2n[nH]c(=O)c3cc(F)cc(c23)N[C@@H]1c1ccc(F)cc1 + COc1c(OCCCN2CCOCC2)ccc2c3n(c(=NC(=O)c4cnc(N)nc4)nc12)CCN3
Reply text: > 9.50

Inquiry: And for Cn1ncc(Cl)c1-c1cc(C(=O)NC(CN)Cc2cccc(F)c2)sc1Cl (stereo not given) + CC(Nc1ccc2c(c1)OCCn1cc(N3C(=O)OCC3C(F)F)nc1-2)C(N)=O ?
Reply text: 6.87

Inquiry: And for C#Cc1c(F)ccc2cc(O)cc(-c3ncc4c(N5CC6CCC(C5)N6)nc(OCC56CCCN5CC(F)C6)nc4c3F)c12 (stereo not given) + COc1c(OCCCN2CCOCC2)ccc2c3n(c(=NC(=O)c4cnc(N)nc4)nc12)CCN3 ?
Reply text: > 7.50

Inquiry: And for C=CC(=O)N1CCN(c2nc(=O)n(-c3c(C)ccnc3C(C)C)c3nc(-c4c(O)cccc4F)c(F)cc23)C(C)C1 (stereo not given) + COc1c(OCCCN2CCOCC2)ccc2c3n(c(=NC(=O)c4cnc(N)nc4)nc12)CCN3 ?
Reply text: > 7.50

Inquiry: And for CCN1CCN(Cc2ccc(Nc3ncc(F)c(-c4cc(F)c5nc(C)n(C(C)C)c5c4)n3)nc2)CC1 + CC(Nc1ccc2c(c1)OCCn1cc(N3C(=O)OCC3C(F)F)nc1-2)C(N)=O ?
Reply text: < 6.00
